The reported measurements were obtained from patent US12637413B2.

Would you mind telling me the reported IC50 of each entry?
target: recombinant human FAAH (Homo sapiens, UniProt O00519); experiment: FAAH inhibition, 30 min preincubation, AMC substrate; settings: 30 min preincubation with recombinant human FAAH and AMC; read-out: Apparent IC50s
Write the answer as a number in nM, unit excluded.

Challenge: Looking for the measured IC50 of `NC(=O)c1cccc(-c2cc(OC(=O)NC3CCCCC3)ccc2O)c1` , can you help?
Response given: 69

Challenge: # IC50 lookup, item `O=C(Nc1cccnn1)N1CCC(=Cc2cccc(Oc3ccc(C(F)(F)F)cn3)c2)CC1`
Response given: 3

----------
Biological target: recombinant human FAAH (rhFAAH) (Homo sapiens, UniProt O00519)
Construct: purchased Cayman Chemical (Ann Arbor, MI, USA)
Sequence (O00519 whole entry): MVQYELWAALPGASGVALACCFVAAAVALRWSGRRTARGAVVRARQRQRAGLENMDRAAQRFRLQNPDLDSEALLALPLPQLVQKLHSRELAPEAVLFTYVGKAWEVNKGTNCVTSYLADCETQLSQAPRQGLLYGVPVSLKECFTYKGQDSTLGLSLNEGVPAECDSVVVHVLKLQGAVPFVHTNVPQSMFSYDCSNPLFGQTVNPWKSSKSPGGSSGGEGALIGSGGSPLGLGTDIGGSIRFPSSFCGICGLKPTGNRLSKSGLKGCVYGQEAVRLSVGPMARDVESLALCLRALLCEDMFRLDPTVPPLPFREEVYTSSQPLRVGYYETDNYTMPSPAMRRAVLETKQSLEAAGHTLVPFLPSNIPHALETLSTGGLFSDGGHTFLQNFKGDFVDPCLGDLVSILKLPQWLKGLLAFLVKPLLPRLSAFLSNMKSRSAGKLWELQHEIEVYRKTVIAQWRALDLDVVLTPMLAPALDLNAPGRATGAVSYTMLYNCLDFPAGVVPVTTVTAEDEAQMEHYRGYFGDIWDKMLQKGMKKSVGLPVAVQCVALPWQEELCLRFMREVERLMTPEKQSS
Assay: FAAH substrate evaluation (acid metabolite formation)
Type: biochemical
Conditions: observed rate constant for acid metabolite formation; 0.5 ng/μL rhFAAH, 1 μM test compound, room temperature, 0-60 minutes
Protocol: Purified recombinant human FAAH (rhFAAH) was purchased from Cayman Chemical (Ann Arbor, MI, USA). […] The resulting mixture was centrifuged at 4000 rpm, 4° C. for 15 minutes, and 100 μL supernatant was ready for LC-MS/MS analysis to measure the formation of acid metabolite. […] The formation of acid metabolite was monitored and quantified using one calibration point of 1 μM. […]
measuredMetric: ke

CC(C)CNC(=O)COc1cc(Cl)c(Cc2ccc(O)c(C(C)C)c2)c(Cl)c1 [Compound 121] :: C (ke is 0)
CC(C)c1cc(Cc2c(Cl)cc(OCC(=O)NC3CCCCC3)cc2Cl)ccc1O [Compound 105] :: C (ke is 0)
CC(C)c1cc(Cc2c(Cl)cc(OCC(=O)NC(C)(C)C)cc2Cl)ccc1O [Compound 119] :: C (ke is 0)
